test: in vitro; details: African green monkey

# Smiles Structure, CC50 (µM)
measured = [
    ("O=c1cc(-c2ccc(O)cc2)oc2cc(O)cc(O)c12", 58.6),
]

----------
target: rBmPYKI (Babesia microti); assay: biochemical; type: biochemical
Sequence (A0A1N6LXR4 1-489): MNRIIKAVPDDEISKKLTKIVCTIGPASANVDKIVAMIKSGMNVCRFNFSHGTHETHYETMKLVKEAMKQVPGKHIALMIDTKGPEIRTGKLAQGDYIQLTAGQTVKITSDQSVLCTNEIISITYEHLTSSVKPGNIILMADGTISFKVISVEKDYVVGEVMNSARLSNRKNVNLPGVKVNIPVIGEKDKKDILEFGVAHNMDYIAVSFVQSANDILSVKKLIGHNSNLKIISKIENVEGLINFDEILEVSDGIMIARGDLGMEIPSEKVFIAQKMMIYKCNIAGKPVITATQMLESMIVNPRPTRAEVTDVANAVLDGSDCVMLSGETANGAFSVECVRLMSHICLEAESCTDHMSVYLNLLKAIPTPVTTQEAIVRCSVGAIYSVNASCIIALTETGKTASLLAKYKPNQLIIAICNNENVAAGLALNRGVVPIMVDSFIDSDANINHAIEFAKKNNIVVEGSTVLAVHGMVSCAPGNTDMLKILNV
Under this convention, 1.0 denotes IC50 strictly below 70 µM and 0.0 denotes IC50 at or above 70 µM.

# Compound, Label Value
measured = [
    ("COc1c(O)cc(O)c2c(=O)cc(-c3ccccc3)oc12 [Wogonin]", 0.0),
    ("CCc1ccc(CCOc2ccc(CC3SC(=O)NC3=O)cc2)nc1 (centres unmarked) [Pioglitazone]", 1.0),
    ("OC[C@H]1O[C@@H](Oc2cc(O)cc(/C=C/c3ccc(O)cc3)c2)[C@H](O)[C@@H](O)[C@@H]1O [Polydatin]", 0.0),
    ("CC(C)=CC[C@@H](O)C1=CC(=O)c2c(O)ccc(O)c2C1=O [Shikonin]", 0.0),
]
